- system-tested: CD71 on SK-BR-3 cells (human, UniProt P02786 1-760)
- Sequence (P02786 whole entry): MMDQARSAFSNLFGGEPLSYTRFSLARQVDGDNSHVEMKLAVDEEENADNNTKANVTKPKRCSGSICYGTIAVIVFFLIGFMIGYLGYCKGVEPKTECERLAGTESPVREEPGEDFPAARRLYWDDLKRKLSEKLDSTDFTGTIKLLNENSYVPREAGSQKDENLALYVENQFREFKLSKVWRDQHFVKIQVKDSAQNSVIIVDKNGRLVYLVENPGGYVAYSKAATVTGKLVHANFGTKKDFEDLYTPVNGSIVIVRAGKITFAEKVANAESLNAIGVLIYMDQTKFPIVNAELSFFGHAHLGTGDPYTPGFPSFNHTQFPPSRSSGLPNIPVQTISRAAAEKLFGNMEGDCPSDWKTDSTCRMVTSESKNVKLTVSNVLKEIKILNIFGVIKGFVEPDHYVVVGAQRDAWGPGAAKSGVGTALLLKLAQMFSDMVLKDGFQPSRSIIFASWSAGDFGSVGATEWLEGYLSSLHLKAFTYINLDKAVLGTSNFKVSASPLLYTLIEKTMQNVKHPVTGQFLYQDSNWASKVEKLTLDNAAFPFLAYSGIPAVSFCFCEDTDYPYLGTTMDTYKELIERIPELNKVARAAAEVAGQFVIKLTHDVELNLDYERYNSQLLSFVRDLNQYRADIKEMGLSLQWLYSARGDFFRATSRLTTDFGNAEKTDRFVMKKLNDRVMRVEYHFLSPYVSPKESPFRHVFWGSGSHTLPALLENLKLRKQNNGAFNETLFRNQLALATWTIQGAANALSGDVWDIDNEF
- protocol-summary: cell-based or functional assay
Recorded IC50, SKBR-3 cell viability, MMAF conjugate for the following binders
Numbers only here, please. The scale is nM.

SEQ ID NO 40 (designed binder, FN3 domain) MLPAPKNLVVSRVTEDSARLSWTAPDAAFDSFVIEYWEYVGHGEAIVLTVPGSERSYDLTGLKPGTEYSVGIYGVKGGSLSRPLSAIFTT :: 3

Consider now this further binder.
Requested field: IC50, SKBR-3 cell viability, MMAF conjugate. Item: SEQ ID NO 59 (designed binder, FN3 domain) MLPAPKNLVVSRVTEDSARLSWTAPDAAFDSFTIWYAEWEDEGEAIVLTVPGSERSYDLTGLKPGTEYRVEIYGVKGGYPSKPLSAIFTT
4
